subject of test: Muscarinic acetylcholine receptor M4 (Homo sapiens)
Sequence (P08173 whole entry): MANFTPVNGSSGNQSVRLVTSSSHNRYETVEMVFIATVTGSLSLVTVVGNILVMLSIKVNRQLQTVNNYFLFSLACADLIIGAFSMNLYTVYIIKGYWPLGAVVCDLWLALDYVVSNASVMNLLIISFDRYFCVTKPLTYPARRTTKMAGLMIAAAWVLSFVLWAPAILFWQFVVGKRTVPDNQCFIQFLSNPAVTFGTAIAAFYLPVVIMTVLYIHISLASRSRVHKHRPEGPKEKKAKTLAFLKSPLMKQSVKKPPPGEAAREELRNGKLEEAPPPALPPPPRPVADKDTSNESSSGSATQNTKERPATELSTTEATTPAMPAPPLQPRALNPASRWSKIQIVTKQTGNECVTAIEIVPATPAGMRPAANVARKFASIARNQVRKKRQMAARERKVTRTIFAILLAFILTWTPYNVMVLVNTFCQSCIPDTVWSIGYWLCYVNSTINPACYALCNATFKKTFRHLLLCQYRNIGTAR
Listed here: items and their measured Ki.
Unit nM implied. Number only.

Query string: What Ki value was documented for this compound, O=C1CCc2ccccc2N1CCCN1CCC(CCCCCO)CC1 ?
Result string: 447

Query string: Next up: CCCCC1CCN(CCCN2C(=O)CCc3ccccc32)CC1
Result string: 209

Query string: Next up: CN1CCC=C(c2nsnc2OCCCCCC2CCN(CCCN3C(=O)CCc4ccccc43)CC2)C1
Result string: 7.94

Query string: Next up: CN1CCC=C(c2nsnc2OCCCCCCCC2CCN(CCCN3C(=O)CCc4ccccc43)CC2)C1
Result string: 0.891

New cases:
Query string: What Ki value was documented for this compound, CN1CCC=C(c2nsnc2OCCCCCCCCCC2CCN(CCCN3C(=O)CCc4ccccc43)CC2)C1 ?
Result string: 1.07

* * *

subject of test: Muscarinic acetylcholine receptor M1 (Homo sapiens, UniProt P11229)
assay method text: Positive modulatory activity at human M1 receptor expressed in HEK293T cells assessed as effect on carbachol-induced response by BRET based Gq protein engagement assay
Format: cell-based, HEK-293T
Listed here: items and their measured EC50.
Unit nM implied. Number only.

Query string: What EC50 value was documented for this molecule, CCCCC1CCN(CCCN2C(=O)CCc3ccccc32)CC1 ?
Result string: 34.7

Next molecule, EC50 to be filled in.
Query string: What EC50 value was documented for this molecule, O=C1CCc2ccccc2N1CCCN1CCC(CCCCCCCO)CC1 ?
Result string: 69.2

* * *

subject of test: Muscarinic acetylcholine receptor M1 (Homo sapiens)
Assay type: cell-based, HEK-293T
Listed here: items and their measured pIC50.
Please report pIC50 as the negative decimal logarithm of the molar concentration, giving only the number.

Previously resolved entries follow.
Query string: Find the measured pIC50: item CN1CCC=C(c2nsnc2OCCCCCCCC2CCN(CCCN3C(=O)CCc4ccccc43)CC2)C1 , target or system Muscarinic acetylcholine receptor M1 (Homo sapiens).
Result string: 6.42

Query string: Next up: CN1CCC=C(c2nsnc2OCCCCCCCCCC2CCN(CCCN3C(=O)CCc4ccccc43)CC2)C1
Result string: 4.85

Query string: Next up: CN1CCC=C(c2nsnc2OCCCCCC2CCN(CCCN3C(=O)CCc4ccccc43)CC2)C1
Result string: 5.27

Query string: Next up: O=C1CCc2ccccc2N1CCCN1CCC(CCCCCCCCCO)CC1
Result string: 5.00

Next molecule, pIC50 to be filled in.
Query string: Find the measured pIC50: item O=C1CCc2ccccc2N1CCCN1CCC(CCCCCO)CC1 , target or system Muscarinic acetylcholine receptor M1 (Homo sapiens).
Result string: 4.58

* * *

subject of test: Muscarinic acetylcholine receptor M4 (Homo sapiens)
assay method text: Antagonist activity at human M4 receptor expressed in HEK293T cells assessed as inhibition of carbachol-induced response by BRET based Gi protein activation assay relative to untreated control
measurement context: HEK-293T
assay readout: Imax (%)
Unit % implied. Number only.

Previously resolved entries follow.
Query string: Find the measured Imax: item CN1CCC=C(c2nsnc2OCCCCCCCC2CCN(CCCN3C(=O)CCc4ccccc43)CC2)C1 , target or system Muscarinic acetylcholine receptor M4 (Homo sapiens).
Result string: 60

Query string: Next up: CCCCC1CCN(CCCN2C(=O)CCc3ccccc32)CC1
Result string: 55

Query string: Next up: O=C1CCc2ccccc2N1CCCN1CCC(CCCCCCCO)CC1
Result string: 54

Next molecule, Imax to be filled in.
Query string: Find the measured Imax: item O=C1CCc2ccccc2N1CCCN1CCC(CCCCCO)CC1 , target or system Muscarinic acetylcholine receptor M4 (Homo sapiens).
Result string: 38

* * *

subject of test: Muscarinic acetylcholine receptor M4 (Homo sapiens, UniProt P08173)
pIC50: −log10 of the molar value.
Think of 6 as a floor: if pIC50 stands on it or above, it is 1; beneath it, -1.

Answered cases to consult:
Query string: hey, is pIC50 for this one >= 6? CN1CCC=C(c2nsnc2OCCCCCC2CCN(CCCN3C(=O)CCc4ccccc43)CC2)C1
Result string: 1

Query string: Next up: O=C1CCc2ccccc2N1CCCN1CCC(CCCCCCCO)CC1
Result string: 1

Query string: Next up: CCCCC1CCN(CCCN2C(=O)CCc3ccccc32)CC1
Result string: -1

Query string: Next up: O=C1CCc2ccccc2N1CCCN1CCC(CCCCCO)CC1
Result string: -1

Query string: Next up: O=C1CCc2ccccc2N1CCCN1CCC(CCCCCCCCCO)CC1
Result string: -1

Alright, here's another compound for you.
Query string: hey, is pIC50 for this one >= 6? CN1CCC=C(c2nsnc2OCCCCCCCC2CCN(CCCN3C(=O)CCc4ccccc43)CC2)C1
Result string: -1

* * *

subject of test: Muscarinic acetylcholine receptor M3 (Homo sapiens, UniProt P20309)
Sequence (P20309 whole entry): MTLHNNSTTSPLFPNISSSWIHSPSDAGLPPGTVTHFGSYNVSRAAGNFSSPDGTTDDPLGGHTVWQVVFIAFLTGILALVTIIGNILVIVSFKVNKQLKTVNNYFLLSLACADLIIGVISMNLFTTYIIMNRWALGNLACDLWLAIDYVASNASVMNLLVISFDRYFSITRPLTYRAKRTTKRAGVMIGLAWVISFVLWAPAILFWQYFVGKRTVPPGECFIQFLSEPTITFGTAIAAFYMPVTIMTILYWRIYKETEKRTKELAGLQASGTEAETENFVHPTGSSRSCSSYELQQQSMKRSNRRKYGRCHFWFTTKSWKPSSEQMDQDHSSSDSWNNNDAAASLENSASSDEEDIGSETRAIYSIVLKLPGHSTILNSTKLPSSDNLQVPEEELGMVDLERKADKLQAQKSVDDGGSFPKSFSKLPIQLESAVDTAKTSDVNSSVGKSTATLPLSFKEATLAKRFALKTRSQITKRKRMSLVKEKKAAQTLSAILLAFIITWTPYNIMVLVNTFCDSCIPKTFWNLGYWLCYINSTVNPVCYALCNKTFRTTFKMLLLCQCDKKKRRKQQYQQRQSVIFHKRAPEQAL
assay method text: Displacement of [3H]NMS from human M3 receptor expressed in CHO cells by microplate scintillation counting based radioligand binding assay
Format: cell-based
pKi: −log10 of the molar value.
Think of 8 as a floor: if pKi stands on it or above, it is satisfied; beneath it, not satisfied.

Answered cases to consult:
Query string: hey, is pKi for this one >= 8? O=C1CCc2ccccc2N1CCCN1CCC(CCCCCCCCCO)CC1
Result string: not satisfied

Query string: Next up: CN1CCC=C(c2nsnc2OCCCCCC2CCN(CCCN3C(=O)CCc4ccccc43)CC2)C1
Result string: satisfied

Query string: Next up: CN1CCC=C(c2nsnc2OCCCCCCCC2CCN(CCCN3C(=O)CCc4ccccc43)CC2)C1
Result string: satisfied

Query string: Next up: O=C1CCc2ccccc2N1CCCN1CCC(CCCCCCCCCCCCCO)CC1
Result string: not satisfied

New cases:
Query string: hey, is pKi for this one >= 8? CN1CCC=C(c2nsnc2OCCCCCCCCCC2CCN(CCCN3C(=O)CCc4ccccc43)CC2)C1
Result string: satisfied

Query string: Next up: CN1CCC=C(c2nsnc2OCCCCCCCCCOc2nsnc2C2=CCCN(C)C2)C1
Result string: satisfied

* * *

subject of test: Muscarinic acetylcholine receptor M1 (Homo sapiens, UniProt P11229)
assay readout: pEC50
Please report pEC50 as the negative decimal logarithm of the molar concentration, giving only the number.

Query string: What pEC50 value was documented for this compound, CCCCC1CCN(CCCN2C(=O)CCc3ccccc32)CC1 ?
Result string: 6.92

* * *

Listed here: items and their measured Emax.
subject of test: Muscarinic acetylcholine receptor M4 (Homo sapiens) (UniProt P08173)
assay method text: Agonist activity at human M4 receptor expressed in HEK293T cells by BRET based Gi protein activation assay relative to carbachol
measurement context: HEK-293T
Unit % implied. Number only.

Previously resolved entries follow.
Query string: What Emax value was documented for this compound, CN1CCC=C(c2nsnc2OCCCCCC2CCN(CCCN3C(=O)CCc4ccccc43)CC2)C1 ?
Result string: 27

Query string: Next up: CCCCCCOc1nsnc1C1=CCCN(C)C1
Result string: 94

Next compound, Emax to be filled in.
Query string: What Emax value was documented for this compound, CCCCC1CCN(CCCN2C(=O)CCc3ccccc32)CC1 ?
Result string: 46

* * *

subject of test: Muscarinic acetylcholine receptor M1 (Homo sapiens)
Sequence (P11229 whole entry): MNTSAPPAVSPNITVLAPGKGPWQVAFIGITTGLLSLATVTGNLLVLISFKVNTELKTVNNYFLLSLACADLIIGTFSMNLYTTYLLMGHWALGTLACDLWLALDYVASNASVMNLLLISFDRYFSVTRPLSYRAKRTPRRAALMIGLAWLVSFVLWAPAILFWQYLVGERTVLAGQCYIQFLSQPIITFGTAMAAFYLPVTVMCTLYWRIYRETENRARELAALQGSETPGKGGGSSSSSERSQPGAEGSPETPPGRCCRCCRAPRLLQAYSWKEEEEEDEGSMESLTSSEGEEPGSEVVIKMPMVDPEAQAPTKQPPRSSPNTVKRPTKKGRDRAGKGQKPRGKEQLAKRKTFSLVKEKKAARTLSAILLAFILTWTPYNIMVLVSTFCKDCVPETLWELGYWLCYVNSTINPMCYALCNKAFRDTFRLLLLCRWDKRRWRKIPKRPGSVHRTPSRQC
assay method text: Agonist activity at human M1 receptor expressed in HEK293T cells by BRET based beta-arrestin engagement assay
Listed here: items and their measured EC50.

Query string: What EC50 value was documented for this compound, CN1CCC=C(c2nsnc2OCCCCCCCC2CCN(CCCN3C(=O)CCc4ccccc43)CC2)C1 ?
Result string: 0.174 µM

The reported numbers originate from ChEMBL document CHEMBL3351363.
